The measured values listed here are drawn from patent US12110293B2.

Each record here notes measured IC50 or EC50 (agonist or antagonist mode not specified).
# measurementTarget: glucocorticoid receptor (Homo sapiens, UniProt P04150)
# Construct: expressed in transfected cells
# Sequence (P04150 524-758 limits assumed): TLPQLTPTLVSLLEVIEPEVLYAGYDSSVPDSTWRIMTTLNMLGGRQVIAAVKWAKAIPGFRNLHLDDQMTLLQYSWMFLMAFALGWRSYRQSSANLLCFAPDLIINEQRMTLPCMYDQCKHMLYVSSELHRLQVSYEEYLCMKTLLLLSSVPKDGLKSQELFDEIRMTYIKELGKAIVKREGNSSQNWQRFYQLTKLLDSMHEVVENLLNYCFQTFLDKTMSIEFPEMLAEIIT
# assayRemarks: Agonistic mode of action on the glucocorticoid receptor (CHO-Gal4/GR luciferase reporter cell line)
# Assay type: cell-based
# testSettings: range class observed in the agonistic assay or the antagonistic assay (CHO-Gal4/GR reporter cells); table does not say which mode applies per example

Here is how some compounds turned out for IC50 or EC50 (agonist or antagonist mode not specified).
# itemSmiles, observedValue
measured = [
    ("Cc1nnc2n1-c1c(cc(F)c(-c3cc(F)cc4c3ccn4S(C)(=O)=O)c1C(F)(F)F)NC2(C)C", "< 100 nM"),
    ("Cc1c[nH]c2c(-c3ccc4c(c3C(F)(F)F)-n3c(C)nnc3C(C)(C)N4)cc(F)cc12", "< 100 nM"),
    ("COc1c(-c2cc(F)cc3c2cnn3S(C)(=O)=O)c(F)cc2c1-n1c(C)nnc1C(C)(C)N2", "100 to 1000 nM"),
]

Entry under review: COc1c(-c2cccc3c(C)c[nH]c23)c(F)cc2c1-n1c(C)nnc1C(C)(C)N2 . Reported IC50 or EC50 (agonist or antagonist mode not specified)?
100 to 1000 nM

// next record Cc1nnc2n1-c1c(cc(F)c(-c3cccc4c3cc(C(F)(F)F)n4C3CC3)c1F)NC2(C)C
100 to 1000 nM

Also, COC(=O)CCn1ccc2c(-c3c(F)cc4c(c3F)-n3c(C)nnc3C(C)(C)N4)cccc21 please.
1000 to 15000 nM

Now try Cc1c[nH]c2c(-c3c(F)cc4c(c3Cl)-n3c(C)nnc3C(C)(C)N4)cc(F)cc12 .
< 100 nM

----------
Measured IC50 or EC50 (agonist or antagonist mode not specified) by item
# measurementTarget: glucocorticoid receptor (Homo sapiens)
# Construct: expressed in transfected cells
# assayRemarks: Agonistic mode of action on the glucocorticoid receptor (CHO-Gal4/GR luciferase reporter cell line)
# Type: cell-based
# testSettings: range class observed in the agonistic assay or the antagonistic assay (CHO-Gal4/GR reporter cells); table does not say which mode applies per example

The following molecules have reported results that may help.
# itemSmiles, observedValue
data = [
    ("Cc1nnc2n1-c1c(ccc(-c3cc(F)cc4c3ccn4C)c1C(F)(F)F)NC2(C)C", "0.1 to 1 µM"),
    ("CC#Cc1c[nH]c2c(-c3c(F)cc4c(c3F)-n3c(CC)nnc3C(C)(C)N4)cc(F)cc12", "0.1 to 1 µM"),
    ("Cc1nnc2n1-c1c(cc(F)c(-c3cccc4cc[nH]c34)c1C(F)(F)F)NC2(C)C", "0.1 to 1 µM"),
    ("Cc1nnc2n1-c1c(cc(F)c(-c3cc(F)cc4c3ccn4S(C)(=O)=O)c1F)NC2(C)C", "< 0.1 µM"),
    ("Cc1nnc2n1-c1c(cc(F)c(-c3cc(F)cc4c3ccn4S(=O)(=O)C3CC3)c1F)NC2(C)C", "0.1 to 1 µM"),
    ("Cc1c(-c2cc(C(F)(F)F)cc3[nH]ccc23)c(F)cc2c1-n1c(C)nnc1C(C)(C)N2", "0.1 to 1 µM"),
    ("Cc1nnc2n1-c1c(cc(F)c(-c3cccc4[nH]ccc34)c1F)NC2(C)C", "< 0.1 µM"),
    ("COc1c(-c2cccc3c2ccn3C(=O)OC(C)(C)C)c(F)cc2c1-n1c(C)nnc1C(C)(C)N2", "0.1 to 1 µM"),
    ("Cc1nnc2n1-c1c(cc(F)c(-c3ccc(F)c4[nH]ccc34)c1F)NC2(C)C", "0.1 to 1 µM"),
    ("Cc1c(-c2cc(F)cc3c2ccn3S(C)(=O)=O)c(C(F)(F)F)cc2c1-n1c(C)nnc1C(C)(C)N2", "1 to 15 µM"),
]

Any idea what IC50 or EC50 (agonist or antagonist mode not specified) was measured for COc1cc2c(c(F)c1-c1cc(F)cc3c(C)c[nH]c13)-n1c(C)nnc1C(C)(C)N2 ?
0.1 to 1 µM

Next molecule up: CCc1nnc2n1-c1c(cc(F)c(-c3cc(F)cc4c3ccn4CC3CC3)c1C)NC2(C)C
0.1 to 1 µM

What do you have for Cc1c(-c2cccc3c2ccn3S(C)(=O)=O)c(Cl)cc2c1-n1c(C)nnc1C(C)(C)N2 ?
1 to 15 µM

Check Cc1c(-c2cc(C(F)(F)F)cc3[nH]ccc23)c(Cl)cc2c1-n1c(C)nnc1C(C)(C)N2 too.
0.1 to 1 µM

What do we get for CCc1nnc2n1-c1c(cc(F)c(-c3cc(F)cc4c3ccn4CCOC)c1C)NC2(C)C ?
0.1 to 1 µM

What do you have for Cc1nnc2n1-c1c(cc(C(F)F)c(-c3cc(F)cc4c3ccn4CCO)c1F)NC2(C)C ?
1 to 15 µM

----------
# measurementTarget: glucocorticoid receptor (Homo sapiens)
# Construct: expressed in transfected cells
# assayRemarks: Agonistic mode of action on the glucocorticoid receptor (CHO-Gal4/GR luciferase reporter cell line)
# Assay type: cell-based
# testSettings: range class observed in the agonistic assay or the antagonistic assay (CHO-Gal4/GR reporter cells); table does not say which mode applies per example
Entries annotated with measured IC50 or EC50 (agonist or antagonist mode not specified)

Report IC50 or EC50 (agonist or antagonist mode not specified) for CCc1c(-c2cc(F)cc3c(C)c[nH]c23)c(F)cc2c1-n1c(C)nnc1C(C)(C)N2 [Example 47] tested on glucocorticoid receptor (Homo sapiens).
< 100 nM

// next record COCCn1ccc2c(-c3c(OC(F)(F)F)cc4c(c3C)-n3c(C)nnc3C(C)(C)N4)cccc21 [Example 460]
100 to 1000 nM

Same again, this time with COCCn1ccc2c(-c3c(F)cc4c(c3OC)-n3c(C)nnc3C(C)(C)N4)cc(F)cc21 [Example 351]
< 100 nM

What would you report for Cc1nnc2n1-c1c(cc(F)c(-c3cccc4c3ccn4S(=O)(=O)CC3CC3)c1F)NC2(C)C [Example 210] ?
< 100 nM

Quick one: Cc1nnc2n1-c1c(cc(F)c(-c3cccc4c(C5CC5)c[nH]c34)c1C(F)(F)F)NC2(C)C [Example 87]
100 to 1000 nM

// query: CCc1nnc2n1-c1c(cc(F)c(-c3cccc4c(C#N)c[nH]c34)c1F)NC2(C)C [Example 12]
1000 to 15000 nM

// repeat for Cc1c(-c2cc(F)cc3c2ccn3S(C)(=O)=O)ccc2c1-n1c(C)nnc1C(C)(C)N2 [Example 453] and report
< 100 nM

Check Cc1nnc2n1-c1c(cc(F)c(-c3cccc4c3cnn4C)c1F)NC2(C)C [Example 221] too.
100 to 1000 nM

----------
# measurementTarget: glucocorticoid receptor (Homo sapiens, UniProt P04150)
# Construct: expressed in transfected cells
# assayRemarks: Agonistic mode of action on the glucocorticoid receptor (CHO-Gal4/GR luciferase reporter cell line)
# Type: cell-based
# testSettings: range class observed in the agonistic assay or the antagonistic assay (CHO-Gal4/GR reporter cells); table does not say which mode applies per example
propertyName: IC50 or EC50 (agonist or antagonist mode not specified)

Below, 5 compounds whose answers are already recorded.
# itemSmiles, measurementTarget, observedValue
measured = [
    ("COc1cc2c(c(C(F)(F)F)c1-c1cc(F)cc3c1ccn3C)-n1c(C)nnc1C(C)(C)N2", "glucocorticoid receptor (Homo sapiens, UniProt P04150)", "100 to 1000 nM"),
    ("Cc1c[nH]c2c(-c3c(OC(F)F)cc4c(c3F)-n3c(C)nnc3C(C)(C)N4)cccc12", "glucocorticoid receptor (Homo sapiens, UniProt P04150)", "100 to 1000 nM"),
    ("Cc1c(-c2cccc3c2ccn3C)c(F)cc2c1-n1c(C)nnc1C(C)(C)N2", "glucocorticoid receptor (Homo sapiens, UniProt P04150)", "< 100 nM"),
    ("Cc1nnc2n1-c1c(cc(F)c(-c3ccc(F)c4[nH]ncc34)c1F)NC2(C)C", "glucocorticoid receptor (Homo sapiens, UniProt P04150)", "100 to 1000 nM"),
    ("Cc1nnc2n1-c1c(cc(OC(F)F)c(-c3cccc4[nH]c(C(F)(F)F)cc34)c1F)NC2(C)C", "glucocorticoid receptor (Homo sapiens, UniProt P04150)", "100 to 1000 nM"),
]

Which IC50 or EC50 (agonist or antagonist mode not specified) value belongs to Cc1nnc2n1-c1c(cc(F)c(-c3cccc4c3ccn4S(C)(=O)=O)c1C1CC1)NC2(C)C ?
< 100 nM

COCCn1ccc2c(-c3c(C(F)F)cc4c(c3F)-n3c(C)nnc3C(C)(C)N4)cc(F)cc21 , same question.
1000 to 15000 nM

Can you check Cc1nnc2n1-c1c(cc(F)c(-c3cccc4cc[nH]c34)c1F)NC2(C)C next?
100 to 1000 nM

Ok, now Cc1nnc2n1-c1c(cc(F)c(-c3cc(F)cc4c3ccn4C3CC3)c1F)NC2(C)C
< 100 nM

Next record, please: Cc1nnc2n1-c1c(cc(F)c(-c3cccc4c3ccn4S(C)(=O)=O)c1C(F)F)NC2(C)C
100 to 1000 nM

For Cc1c(-c2cc(F)cc3c(C4CC4)c[nH]c23)c(F)cc2c1-n1c(C)nnc1C(C)(C)N2 then?
< 100 nM

One more compound: Cc1c(-c2cccc3c(C#CC(C)(C)O)c[nH]c23)c(F)cc2c1-n1c(C)nnc1C(C)(C)N2
100 to 1000 nM

Also check Cc1cc2c(c(C)c1-c1cc(F)cc3c1cnn3S(C)(=O)=O)-n1c(C)nnc1C(C)(C)N2
100 to 1000 nM

Now give it for CCc1c(-c2cccc3c2cnn3S(C)(=O)=O)c(F)cc2c1-n1c(C)nnc1C(C)(C)N2 too.
100 to 1000 nM

Cc1nnc2n1-c1c(cc(F)c(-c3cccc4c3ccn4CC3CC3)c1F)NC2(C)C , same question.
< 100 nM

Same again, this time with Cc1c(-c2cccc3c(C)n[nH]c23)c(F)cc2c1-n1c(C)nnc1C(C)(C)N2
1000 to 15000 nM
